B1: Ligand of Numb protein X 2 (Homo sapiens), Q8N448 (parent)
chain: MGTTSDEMVSVEQTSSSSLNPLCFECGQQHWTRENHLYNYQNEVDDDLVCHICLQPLLQPLDTPCGHTFCYKCLRNFLQEKDFCPLDRKRLHFKLCKKSSILVHKLLDKLLVLCPFSSVCKDVMQRCDLEAHLKNRCPGASHRRVALERRKTSRTQAEIENENGPTLLDPAGTLSPEADCLGTGAVPVERHLTSASLSTWSEEPGLDNPAFEESAGADTTQQPLSLPEGEITTIEIHRSNPYIQLGISIVGGNETPLINIVIQEVYRDGVIARDGRLLAGDQILQVNNYNISNVSHNYARAVLSQPCNTLHLTVLRERRFGNRAHNHSDSNSPREEIFQVALHKRDSGEQLGIKLVRRTDEPGVFILDLLEGGLAAQDGRLSSNDRVLAINGHDLKYGTPELAAQIIQASGERVNLTIARPGKPQPGNTIREAGNHSSSSQHHTPPPYYSRPSSHKDLTQCVTCQEKHITVKKEPHESLGMTVAGGRGSKSGELPIFVTSVPPHGCLARDGRIKRGDVLLNINGIDLTNLSHSEAVAMLKASAASPAVALKALEVQIVEEATQNAEEQPSTFSENEYDASWSPSWVMWLGLPSTLHSCHDIVLRRSYLGSWGFSIVGGYEENHTNQPFFIKTIVLGTPAYYDGRLKCGDMIVAVNGLSTVGMSHSALVPMLKEQRNKVTLTVICWPGSLV

Variants of: B1
CONDITION INFO: with optn_human OPTN

{"CHANGE": "S141A", "effect of a mutation on the interaction": "with no effect"}
{"CHANGE": "T183I", "effect of a mutation on the interaction": "with no effect"}
{"CHANGE": "V145I", "effect of a mutation on the interaction": "with no effect"}
